Numbers sourced from PubChem BioAssay (NCI).

# Test system: TK-10 renal
# method: NCI tumour cell line growth inhibition, 48 h
measurement_label: TGI (µM)
Please give a number only; it is taken to be in µM.

mol_smiles	measurement_label	endpoint_value
[N-]=[N+]=NCCCn1c2c(c3ccc([N+](=O)[O-])cc3c1=O)C(=O)c1cc3c(cc1-2)OCO3	TGI	19.9
COCCOCCOCc1n(Cc2ccc3ccccc3c2)c2ccccc2[n+]1Cc1ccc2ccccc2c1	TGI	2.15
O=C1C[C@H](COCc2ccccc2)NC(=O)C[C@H](COCc2ccccc2)NC(=O)C[C@H](COCc2ccccc2)N1	TGI	41.1
Cc1ccc(Nc2cc(Cl)c([N+](=O)[O-])cc2[N+](=O)[O-])cc1	TGI	17.5
N#Cc1cc2c(cc1C#N)/C(=N\c1cccc(N)n1)N=C2Nc1cccc(N)n1	TGI	68.8
CN(C)C(=O)OCc1nc2c(N3CCOCC3)nc(-c3ccccc3)nc2n1C	TGI	2.81
CC(C)(C)OC(=O)NCCCCn1c2c(c3ccccc3c1=O)C(=O)c1ccccc1-2	TGI	47.7

Attention now shifts to the item below.
-- ask Reported TGI, compound c1csc(-c2nccc3c2[nH]c2ccccc23)c1 : ____
-- reply 48.7

###

# Test system: SW-620 colon
# method: NCI tumour cell line growth inhibition, 48 h
Parameter: TGI. Scope: all listed entries.

compound	test_target	TGI
O=C(Nn1c(-c2cccs2)nc2ccc(I)cc2c1=O)c1ccccc1	SW-620 colon	> 100 µM
CC(=O)Oc1ccc2c(c1)[C@@]1(C)CCCC(C)(C)[C@@H]1CC2	SW-620 colon	> 100 µM
C=C1CCCC(C)(C)[C@H]1C/C=C1\CCOC1=O	SW-620 colon	35.2 µM

-- ask Could you tell me which TGI is on file for O/N=C(/C(Cl)=C(Cl)Cl)C(Cl)Cl ?
-- reply 38.8 µM

-- ask Requested read-out: TGI. Entry: CN(C)CCNCc1ccc2c(-c3ccccc3)nc3cc(Cl)c(Cl)cc3n12
-- reply 28.3 µM

###

Recorded TGI, one value per entry.
# Test system: KM12 colon
# method: NCI tumour cell line growth inhibition, 48 h

Some solved cases for reference:
molecule	endpoint_value
O=C(Nn1c(-c2cccs2)nc2ccc(I)cc2c1=O)c1ccccc1	81.2 µM
C=C(Cl)/C(=C\Cl)CCC(Cl)C(C)C (stereo unspecified)	> 100 µM

-- ask Look at this molecule and give its reported TGI. c1ccc2c(c1)OCCc1cn[nH]c1-2
-- reply > 100 µM

-- ask Would you mind telling me what TGI value was observed for Cc1ccc(/C=C2/N=C(N/N=C\C(O)C(O)C(O)CO)NC2=O)cc1 (stereo unspecified) ?
-- reply > 100 µM

-- ask Endpoint output: TGI of O=C(Cc1nc2sc3c(c2c(=O)[nH]1)CCCC3)Nc1ccccc1 . Value?
-- reply > 100 µM

-- ask Data request, read-out TGI, for O=C(O)C1CC=CCC1C(=O)Nc1cccc(O)c1 (stereo unspecified)
-- reply > 100 µM

-- ask Entry under review: O=c1cc(-c2ccccc2)[nH]c2ccc(S)cc12 . Reported TGI?
-- reply > 100 µM

###

// reported TGI for each item listed
# Test system: A498 renal
# method: NCI tumour cell line growth inhibition, 48 h
Give just the numeric value; µM need not be written.

Sample records with TGI:
compound	unit_spec	TGI
COc1ccc(C(=O)NC2=C(Cl)C(=O)c3ccccc3C2=O)cc1	µM	27.7
CC(C)=Cc1cc(C)c2c3c(c(O)c(O)c(C)c13)C(C)=CC2=O	µM	47.5
NCCCOc1cc2ccccc2cc1C(=O)Nc1ccc(Cl)cc1OC(=O)c1cc2ccccc2cc1OCCCN	µM	2.92
N#Cc1ccc(-c2c(-c3ncn[nH]3)sc(N3CCOCC3)c2C#N)c(F)c1	µM	0.206
Clc1ccc(C2CC(c3cccc(Nc4ccncc4)c3)=NN2c2ccc(Cl)cc2)cc1 (stereo not given)	µM	2.94
CN(C)CCNCc1ccc2c(-c3ccccc3)nc3cc(Cl)c(Cl)cc3n12	µM	29.9

-- ask So what does the record say about TGI for O=C(O)CCO/N=C1/C(c2c(O)[nH]c3ccccc23)=Nc2ccccc21 ?
-- reply 74.2

-- ask TGI for O=[N+]([O-])c1ccc(-n2nc3ccc4c(no[n+]4[O-])c3[n+]2[O-])c([N+](=O)[O-])c1 ?
-- reply 16.3

-- ask So what's the measured TGI for this one? N#Cc1cnc2cc(OC[C@@H](O)CO)c(NC(=O)C3CCCC3)cc2c1Nc1ccc(OCc2cccc(F)c2)c(Cl)c1
-- reply 13.4
